assay: Plasma protein binding in rat; type: ADME, cell-free; settings: read-out: PPB (converted)
endpoint_name: fraction unbound

[
  {
    "smiles_notation": "COc1cnc(COc2ccc(F)c(F)c2)cc1-c1cc2c([nH]1)CCNC2=O",
    "endpoint_name": "fraction unbound",
    "numeric_readout": 0.031
  }
]

* * *

experiment: Tmax in […] mouse at 30 mg/kg, po; assay type: ADME, organism-based; set-up: dose 30 mg/kg, route oral; settings: in vivo

[
  {
    "smiles_notation": "COc1cnc(COc2cc(F)c(F)cc2C)cc1-c1cc2c([nH]1)CCNC2=O",
    "Tmax (min)": 70.2
  },
  {
    "smiles_notation": "COc1cnc(COc2ccc(F)c(F)c2)cc1-c1cc2c([nH]1)CCNC2=O",
    "Tmax (min)": 19.8
  }
]

* * *

In this section we review reported AUC values for a set of molecules.
assay: AUC in […] mouse at 30 mg/kg, po; format: ADME, organism-based; set-up: dose 30 mg/kg, route oral; conditions: plasma

[
  {
    "smiles_notation": "COc1cnc(COc2cc(F)c(F)cc2C)cc1-c1cc2c([nH]1)CCNC2=O",
    "AUC (µM·h)": 2.1
  },
  {
    "smiles_notation": "COc1cnc(COc2ccc(F)c(F)c2)cc1-c1cc2c([nH]1)CCNC2=O",
    "AUC (µM·h)": 15.4
  }
]

* * *

experiment: Selectivity ratio of IC50 for CK1-alpha to IC50 for CK1-gamma2
Label criterion met when Ratio IC50 is strictly below 6; at or above that, label criterion not met.

[
  {
    "smiles_notation": "COc1cnc(COc2ccc(F)cc2C)cc1-c1cc2c([nH]1)CCNC2=O",
    "answer_label": "criterion not met"
  },
  {
    "smiles_notation": "COc1cnc(-c2cnc3ccccc3c2)nc1-c1cc2c([nH]1)CCNC2=O",
    "answer_label": "criterion met"
  },
  {
    "smiles_notation": "COc1cnc(COc2ccc(F)c(F)c2)cc1-c1cc2c([nH]1)CCNC2=O",
    "answer_label": "criterion not met"
  },
  {
    "smiles_notation": "COc1cnc(COc2ccc(F)cc2F)cc1-c1cc2c([nH]1)CCNC2=O",
    "answer_label": "criterion not met"
  }
]

* * *

Listed compounds paired with reported pIC50
molecular target: Casein kinase I isoform delta (Homo sapiens)
Sequence (P48730 whole entry, canonical isoform): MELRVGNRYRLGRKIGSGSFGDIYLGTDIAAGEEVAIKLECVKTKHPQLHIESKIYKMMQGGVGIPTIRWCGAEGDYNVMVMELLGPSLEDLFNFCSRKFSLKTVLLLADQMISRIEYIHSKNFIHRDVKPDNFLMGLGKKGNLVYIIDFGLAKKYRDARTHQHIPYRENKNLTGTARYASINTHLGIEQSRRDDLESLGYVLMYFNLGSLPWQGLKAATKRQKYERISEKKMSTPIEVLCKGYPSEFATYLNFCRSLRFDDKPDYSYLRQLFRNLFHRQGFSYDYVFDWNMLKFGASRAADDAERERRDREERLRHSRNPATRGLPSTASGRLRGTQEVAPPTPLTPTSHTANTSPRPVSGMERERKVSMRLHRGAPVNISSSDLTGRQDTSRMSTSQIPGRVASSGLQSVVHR
pIC50: −log10 of the molar value.

[
  {
    "smiles_notation": "COc1cnc(COc2ccc(F)c(F)c2)cc1-c1cc2c([nH]1)CCNC2=O",
    "pIC50": 7.40
  },
  {
    "smiles_notation": "COc1cnc(OCc2ccc(F)cc2)nc1-c1cc2c([nH]1)CCNC2=O",
    "pIC50": 6.77
  },
  {
    "smiles_notation": "COc1cnc(COc2ccc(F)cc2)nc1-c1cc2c([nH]1)CCNC2=O",
    "pIC50": 7.24
  },
  {
    "smiles_notation": "COc1cnc(Oc2ccccc2)nc1-c1cc2c([nH]1)CCNC2=O",
    "pIC50": 5.31
  },
  {
    "smiles_notation": "COc1cnc(-c2cnc3ccccc3c2)nc1-c1cc2c([nH]1)CCNC2=O",
    "pIC50": 7.17
  },
  {
    "smiles_notation": "COc1cnc(COc2ccc(F)cc2F)cc1-c1cc2c([nH]1)CCNC2=O",
    "pIC50": 7.44
  },
  {
    "smiles_notation": "COc1cnc(COc2ccc(F)cc2C)cc1-c1cc2c([nH]1)CCNC2=O",
    "pIC50": 7.23
  },
  {
    "smiles_notation": "COc1cnc(NCc2ccccc2)nc1-c1cc2c([nH]1)CCNC2=O",
    "pIC50": 7.66
  }
]
